Test system: HCC-2998 colon
Experiment: NCI tumour cell line growth inhibition, 48 h
test-readout: TGI

Observe how each entry below is paired with its result.
CC1(C)CC(=O)c2c(N)n[nH]c2C1 ... > 100 µM
CCOP(=O)(OCC)/C(=C/n1c(=S)[nH]c2ccccc21)C(=O)OC ... > 100 µM
COc1ccc(C(=O)/C=C/c2ccc(OCc3cccc(C(F)(F)F)c3)c(OC)c2)cc1OC ... > 1000 µM
C=C1c2c(n(S(=O)(=O)c3ccccc3)c3ccccc23)[C@@]2(C(=O)OC)CC3C=CC2N1C3 ... > 100 µM

In the following, a different compound is considered.
Lookup result for CCn1c(CCCc2nc3c([nH]2)c(=O)n(C)c(=O)n3C)nc2c1c(=O)n(C)c(=O)n2C ; measured TGI: > 100 µM
